Reported growth values for the following compounds.
Test system: UO-31 renal
test: NCI-60 one-dose screen, 48 h (100 = growth as untreated, 0 = no growth, -100 = all killed)
settings: 10 µM unless noted
This is part of a sample that, as a whole, favours compounds with a hit. Of some 83,000 tested, about 20% had one in any assay.
Quick note: give the figure in %, leave out the unit.

Find the measured growth of CC1=C(C#N)C2=NNCC(c3ccccc3)=NN2C(c2ccccc2)=C1 and report it.
91.2

For O=C1c2c(c3c4cc(F)ccc4oc3c3[nH]c4ccc(Br)cc4c23)C(=O)N1O , write its growth.
9.04

Given the compound COc1cc2c3c(n(CCCN4CCC[C@@H]4CO)c(=O)c2cc1OC)-c1cc2c(cc1C3=O)OCO2 , write its reported growth.
-92.5

For O=C(Cn1c(/C=C/c2ccccc2)nc2ccccc2c1=O)Nc1ccccc1 , write its growth.
24.7

Please give measured growth of the following entry: C=C1CC[C@@H]2[C@]3(C)COC(c4ccco4)O[C@@H]3CC[C@@]2(C)[C@@H]1C/C=C1/C(=O)OCC1OC(C)=O (some centres undefined)
35.4

Provide one value: measured growth of CN(C)c1nc(NCCNS(=O)(=O)c2ccc(C3=Nc4c(N)nc(N)nc4NC(c4ccc(C(F)(F)F)cc4)C3)cc2)nc(Nc2ccc(F)cc2)n1 (centres undefined)
84.7

Supply measured growth of N#Cc1ccc(C(=O)Nn2c(N)cc3ccccc3c2=O)cc1 in your reply.
64.9

Identify measured growth associated with COc1cc(OC)c2c3nc4cc(C)c(C)cc4nc3n(CCN(C)C)c2c1
-68.6

More entries:
Query growth for C#CCOc1cc(N(CC)CC)ccc1C(C(=O)NC(C)(C)C)N(C(=O)C1CCc2cc(F)ccc2O1)c1cc(C)cc(C)c1 (centres undefined)
23.2
